Recorded values, source patent US20180208680A1.

# target under test: BoNT/DC mosaic toxin (Clostridium botulinum)
# test description: yeast scFv FACS
observed property: Kd (nM)
# number only, unit nM dropped from output

Exercise: Give the measured Kd for 4C10 scFv (scFv, V domains shown) VH: QVQLVESGGGAVQPGESLRLSCAASGFTFSGFDMHWVRQSPGRGLEWVARISHDGSMADYADSLRGRFTISRDNPKNTLYLHMNSLRVEDTALYYCAKDRWRSGSYPAFEKWGQGTMVTVSS VL: QSVPTQPASVSGSPGQSITISCTGTSSDVGAYNYVSWYQQHPGKAPKLMIYDVSDRPSGVSNRFSGSKSGNTASLTISGLQAEDEADYYCSSYTSSSTYVFGTGTKLTVL
Solution: 107
